Recorded IC50 values for a group of compounds are listed next.
# Tested on: HT-29 cells
# protocol.description: MTT cytotoxicity, colon cancer cells HT-29
# Assay type: cell-based, human
# details: Homo sapiens, HT-29; MTT, no * mark (incubation time not given)
Record the result as number plus unit.

These recorded examples may help you get a feel for the data.
compound: CCN(CC)CCNC(=O)c1c(C)[nH]c(/C=C2\C(=O)Nc3ccc(F)cc32)c1C [Sunitinib malate, reference compound]
IC50: 2940 nM

compound: O=C1/C(=C\c2c[nH]c3ccccc23)c2cc(Cl)ccc2N1Cc1ccc(F)cc1 [17C]
IC50: 2070 nM

Input line: // Input: Cc1ccc2c(c1)/C(=C/c1c[nH]c3ccccc13)C(=O)N2Cc1ccccc1 [Y3] . Output its IC50 only.
Output line: 2430 nM

====

# System: HT-29 cells
# protocol.description: MTT cytotoxicity, colon cancer cells HT-29
# Type: cell-based, human
# details: MTT, no * mark (incubation time not specified)
readout.kind: IC50 (µM)
Please give a number only; it is taken to be in µM.

These recorded examples may help you get a feel for the data.
molecule: O=C1/C(=C\c2c[nH]c3ccccc23)c2ccccc2N1Cc1ccccc1
IC50 [µM]: 1.81

molecule: Cc1ccc(CN2C(=O)/C(=C\c3c[nH]c4ccccc34)c3cccc(F)c32)cc1 [35C]
IC50 [µM]: 1.01

molecule: Cc1ccc2c(c1)/C(=C/c1cn(C)c3ccccc13)C(=O)N2Cc1ccccc1
IC50 [µM]: 3.37

molecule: O=C1/C(=C\c2c[nH]c3ccccc23)c2cc(OC(F)(F)F)ccc2N1Cc1ccc(Cl)cc1
IC50 [µM]: 0.44

molecule: O=C1C(=Cc2c[nH]c3ccccc23)c2cc(Cl)ccc2N1Cc1cccc(Cl)c1 [18C]
IC50 [µM]: 3.12

molecule: O=C1/C(=C\c2c[nH]c3ccccc23)c2cc(F)ccc2N1Cc1ccc(F)cc1 [10C]
IC50 [µM]: 2.29

molecule: Cn1cc(/C=C2\C(=O)N(Cc3ccccc3)c3ccc(Cl)cc32)c2ccccc21
IC50 [µM]: 4.18

From here, focus on the item given below.
Input line: // Input: O=C1/C(=C\c2c[nH]c3ccccc23)c2cccc(F)c2N1Cc1ccc(F)cc1 [31C] . Output its IC50 only.
Output line: 3.95

====

Recorded selectivity index values for a group of compounds are listed next.
# Test system: MIAPaCa-2 cells
# protocol.description: MTT cytotoxicity, pancreas cancer cells MIAPaCa-2
# Format: cell-based, human
# details: MCF-10F/Beas2b vs MIAPaCa-2

Input line: // Input: O=C1/C(=C\c2c[nH]c3ccccc23)c2ccccc2N1Cc1ccccc1 . Output its selectivity index only.
Output line: > 23

Input line: // Input: O=C1/C(=C\c2c[nH]c3ccccc23)c2cc(Cl)ccc2N1Cc1ccccc1 . Output its selectivity index only.
Output line: > 21

Input line: // Input: Cc1ccc2c(c1)/C(=C/c1c[nH]c3ccccc13)C(=O)N2Cc1ccccc1 . Output its selectivity index only.
Output line: > 77

Input line: // Input: Cc1ccc2c(c1)/C(=C/c1c[nH]c3ccccc13)C(=O)N2Cc1cccc(F)c1 . Output its selectivity index only.
Output line: > 19

====

Recorded pIC50 values for a group of molecules are listed next.
# Test system: A498 cells
# protocol.description: MTT cytotoxicity, kidney cancer cells A498
# Assay type: cell-based, human
# details: MTT, no * mark (incubation time not specified)
Scale for pIC50: -log10 of concentration given in mol/L; no unit attached.

These recorded examples may help you get a feel for the data.
molecule: O=C1C(=Cc2c[nH]c3ccccc23)c2cc(Cl)ccc2N1Cc1cccc(Cl)c1 [18C]
pIC50: 5.76
//
molecule: O=C1/C(=C\c2c[nH]c3ccccc23)c2cc(F)ccc2N1Cc1ccc(F)cc1 [10C]
pIC50: 5.42
//
molecule: O=C1/C(=C\c2c[nH]c3ccccc23)c2cccc(F)c2N1Cc1ccc(F)cc1 [31C]
pIC50: 5.55

From here, focus on the item given below.
Input line: // Input: O=C1/C(=C\c2c[nH]c3ccccc23)c2cccc(F)c2N1Cc1cccc(Cl)c1 [32C] . Output its pIC50 only.
Output line: 5.08

====

Recorded pIC50 values for a group of compounds are listed next.
# System: MDA-MB-231 cells
# protocol.description: MTT cytotoxicity, breast cancer cells MDA-MB-231
# Assay type: cell-based, human
# details: read-out: IC50, MDA-MB-231 (breast); MTT, *: effective 72 hours after incubation
Scale for pIC50: -log10 of concentration given in mol/L; no unit attached.

These recorded examples may help you get a feel for the data.
compound: O=C1/C(=C\c2c[nH]c3ccccc23)c2cc(OC(F)(F)F)ccc2N1Cc1ccc(Cl)cc1 [5C]
target.or.test.system: MDA-MB-231 cells
pIC50: 5.24
--
compound: O=C1/C(=C\c2c[nH]c3ccccc23)c2cc(F)ccc2N1Cc1ccc(F)cc1 [10C]
target.or.test.system: MDA-MB-231 cells
pIC50: 5.09
--
compound: O=C1/C(=C\c2c[nH]c3ccccc23)c2cccc(F)c2N1Cc1ccc(F)cc1 [31C]
target.or.test.system: MDA-MB-231 cells
pIC50: 5.04
--
compound: O=C1/C(=C\c2c[nH]c3ccccc23)c2cc(F)ccc2N1Cc1ccc(Cl)cc1 [12C]
target.or.test.system: MDA-MB-231 cells
pIC50: 5.17

From here, focus on the item given below.
Input line: Give pIC50 only, for O=C1/C(=C\c2c[nH]c3ccccc23)c2cc(OC(F)(F)F)ccc2N1Cc1cccc(Cl)c1 [4C] , using MDA-MB-231 cells data.
Output line: 5.51

====

Recorded IC50 values for a group of compounds are listed next.
# Tested on: HT-29 cells
# protocol.description: MTT cytotoxicity, colon cancer cells HT-29
# Assay type: cell-based, human
# details: MTT, no * mark (incubation time not specified)
Please give a number only; it is taken to be in nM.

These recorded examples may help you get a feel for the data.
compound: O=C1/C(=C\c2c[nH]c3ccccc23)c2cc(OC(F)(F)F)ccc2N1Cc1ccccc1
IC50 (nM): 1750
//
compound: Cc1cccc(CN2C(=O)/C(=C\c3c[nH]c4ccccc34)c3ccccc32)c1 [50C]
IC50 (nM): 1490

From here, focus on the item given below.
Input line: // Input: O=C1/C(=C\c2c[nH]c3ccccc23)c2cc(Cl)ccc2N1Cc1ccccc1 . Output its IC50 only.
Output line: 1520

====

# Test system: HCT-116 cells
# protocol.description: MTT cytotoxicity, colon cancer cells HCT-116
# Format: cell-based, human
# details: Homo sapiens, HCT-116, no * mark (incubation time not given)
readout.kind: IC50
Record the result as number plus unit.

molecule: O=C1/C(=C\c2c[nH]c3ccccc23)c2cc(Cl)ccc2N1Cc1ccc(F)cc1 [17C]
IC50: 0.93 µM
//
molecule: CCN(CC)CCNC(=O)c1c(C)[nH]c(/C=C2\C(=O)Nc3ccc(F)cc32)c1C [Sunitinib malate, reference compound]
IC50: 1.78 µM

From here, focus on the item given below.
Input line: // Input: Cc1ccc2c(c1)/C(=C/c1c[nH]c3ccccc13)C(=O)N2Cc1ccccc1 [Y3] . Output its IC50 only.
Output line: 2.05 µM

====

# Tested on: HUVEC cells
# protocol.description: MTT cytotoxicity, healthy cells HUVEC
# Assay type: cell-based, human
# details: MTT, no * mark (incubation time not specified)
readout.kind: IC50 (µM)
Please give a number only; it is taken to be in µM.

These recorded examples may help you get a feel for the data.
compound: O=C1/C(=C\c2c[nH]c3ccccc23)c2cc(Cl)ccc2N1Cc1ccc(Cl)cc1 [19C]
IC50 [µM]: 1.87
//
compound: Cc1cccc(CN2C(=O)/C(=C\c3c[nH]c4ccccc34)c3cc(Cl)ccc32)c1 [20C]
IC50 [µM]: 1.52
//
compound: Cc1ccc(CN2C(=O)/C(=C\c3c[nH]c4ccccc34)c3cccc(F)c32)cc1 [35C]
IC50 [µM]: 1.62
//
compound: O=C1/C(=C\c2c[nH]c3ccccc23)c2cc(OC(F)(F)F)ccc2N1Cc1ccc(F)cc1 [3C]
IC50 [µM]: 4.3

Input line: // Input: Cc1cccc(CN2C(=O)/C(=C\c3c[nH]c4ccccc34)c3cc(F)ccc32)c1 [13C] . Output its IC50 only.
Output line: 2.24

====

# System: MIAPaCa-2 cells
# protocol.description: MTT cytotoxicity, pancreas cancer cells MIAPaCa-2
# Format: cell-based, human
# details: Homo sapiens, MIA PaCa-2, 72 h, MTT, *: effective 72 hours after incubation
readout.kind: IC50 (µM)
Please give a number only; it is taken to be in µM.

Input line: // Input: CCN(CC)CCNC(=O)c1c(C)[nH]c(/C=C2\C(=O)Nc3ccc(F)cc32)c1C [Sunitinib malate, reference compound] . Output its IC50 only.
Output line: 4.03

====

# Tested on: A498 cells
# protocol.description: MTT cytotoxicity, kidney cancer cells A498
# Assay type: cell-based, human
# details: MTT, no * mark (incubation time not specified); listed as sunitinib malate
# Text: The cytotoxicity, general tyrosine kinase inhibitory effects and cell death (apoptosis/necrosis) assays of 1-benzyl-3-(1H-indol-3-ylmethylidene)-1,3-dihydro-2H-indol-2-one derivatives (Formula 5) of the present invention are studied by the following methods. […] MTT (3-(4,5-dimethylthiazol-2-yl)-2,5-diphenyl-2H-tetrazolium bromide) colorimetric assay provides quantitation of viable cells with ongoing mitochondrial activity in culture medium. […]
readout.kind: IC50

Input line: // Input: CCN(CC)CCNC(=O)c1c(C)[nH]c(/C=C2\C(=O)Nc3ccc(F)cc32)c1C [Sunitinib malate, reference compound] . Output its IC50 only.
Output line: > 10 µM
